Source listed as patent US7060678B2.

Entries and their Percent Cytotoxicity
test system: ECV-304 (endothelial); conditions: ECV-304 cells; peptide 10 nM; 48 hours; NA = Not Active
Starred links: 1 amine or outer side, 2 acyl side, 3 side chain; linkers in the order of their positions; H or OH if unused. Non-standard residues stand in square brackets, D forms with d. Residues, ends and D or L forms follow the SMILES beside them. 2Furoyl(5-aminomethyl) = O=C(c1ccc(CN[*:1])o1)[*:2]; X2 = O=C([C@@H]1CC[C@H](CN[*:1])O1)[*:2]; X1 = O=C(C1CCC(CN[*:1])O1)[*:2]
measuredEndpoint: Percent Cytotoxicity (%)

>>> number("CSCC[C@H](NC(=O)[C@@H](N)CC(C)C)C(=O)N[C@@H](Cc1ccc(O)cc1)C(=O)NCC1CCC(C(=O)N[C@@H](Cc2ccc(O)cc2)C(=O)N[C@@H](CC(C)C)C(=O)N[C@@H](CCCCN)C(=O)O)O1 (stereo partly drawn) [SEQ ID NO: 12, Leu-Met-Tyr-Saa3-Tyr-Leu-Lys] (H-LMY[X1]YLK-OH)")
36.9
>>> number("CSCC[C@H](NC(=O)[C@@H](N)CC(C)C)C(=O)NCC1CCC(C(=O)N[C@H](C(=O)N[C@@H](Cc2ccc(O)cc2)C(=O)N[C@@H](CC(C)C)C(=O)N[C@@H](CCCCN)C(=O)O)[C@@H](C)O)O1 (stereo partly drawn) [SEQ ID NO: 8, Leu-Met-Saa3-Thr-Tyr-Leu-Lys] (H-LM[X1]TYLK-OH)")
12.7
>>> number("CSCC[C@H](NC(=O)[C@@H](N)CC(C)C)C(=O)N[C@@H](Cc1ccc(O)cc1)C(=O)NC[C@H]1CC[C@@H](C(=O)N[C@@H](Cc2ccc(O)cc2)C(=O)N[C@@H](CC(C)C)C(=O)N[C@@H](CCCCN)C(=O)O)O1 [SEQ ID NO: 13, Leu-Met-Tyr-Saa4-Tyr-Leu-Lys] (H-LMY[X2]YLK-OH)")
21.0
>>> number("CSCC[C@H](N)C(=O)NCC1CCC(C(=O)N[C@@H](Cc2ccc(O)cc2)C(=O)N[C@@H](CC(C)C)C(=O)O)O1 (some centres unmarked)")
7.9
>>> number("CSCC[C@H](NC(=O)[C@@H](N)CC(C)C)C(=O)N[C@@H](Cc1ccc(O)cc1)C(=O)NCc1ccc(C(=O)N[C@@H](Cc2ccc(O)cc2)C(=O)N[C@@H](CC(C)C)C(=O)N[C@@H](CCCCN)C(=O)O)o1 [SEQ ID NO: 10, Leu-Met-Tyr-Saa1-Tyr-Leu-Lys] (H-LMY[2Furoyl(5-aminomethyl)]YLK-OH)")
12.9
>>> number("CSCC[C@H](NC(=O)[C@@H](N)CC(C)C)C(=O)NC[C@H]1CC[C@@H](C(=O)N[C@H](C(=O)N[C@@H](Cc2ccc(O)cc2)C(=O)N[C@@H](CC(C)C)C(=O)N[C@@H](CCCCN)C(=O)O)[C@@H](C)O)O1 [SEQ ID NO: 9, Leu-Met-Saa4-Thr-Tyr-Leu-Lys] (H-LM[X2]TYLK-OH)")
15.8
>>> number("CSCC[C@H](N)C(=O)NC[C@H]1CC[C@@H](C(=O)N[C@@H](Cc2ccc(O)cc2)C(=O)N[C@@H](CC(C)C)C(=O)O)O1")
13.9
>>> number("CSCC[C@H](N)C(=O)NCc1ccc(C(=O)N[C@@H](Cc2ccc(O)cc2)C(=O)N[C@@H](CC(C)C)C(=O)O)o1")
13.0

###

Entries and their Percent Cytotoxicity
test system: HeP-2 (larynx); experiment: MTT cytotoxicity assay, HeP-2 cells; type: cell-based, human; conditions: human, 48 hours, 10 nM
Starred links: 1 amine or outer side, 2 acyl side, 3 side chain; linkers in the order of their positions; H or OH if unused. Non-standard residues stand in square brackets, D forms with d. Residues, ends and D or L forms follow the SMILES beside them. 2Furoyl(5-aminomethyl) = O=C(c1ccc(CN[*:1])o1)[*:2]
measuredEndpoint: Percent Cytotoxicity (%)

>>> number("CSCC[C@H](NC(=O)[C@@H](N)CC(C)C)C(=O)N[C@@H](Cc1ccc(O)cc1)C(=O)NCc1ccc(C(=O)N[C@@H](Cc2ccc(O)cc2)C(=O)N[C@@H](CC(C)C)C(=O)N[C@@H](CCCCN)C(=O)O)o1 [SEQ ID NO: 10, Leu-Met-Tyr-Saa1-Tyr-Leu-Lys] (H-LMY[2Furoyl(5-aminomethyl)]YLK-OH)")
32.0
>>> number("CSCC[C@H](NC(=O)[C@@H](N)CC(C)C)C(=O)NCc1ccc(C(=O)N[C@@H](Cc2ccc(O)cc2)C(=O)N[C@@H](CC(C)C)C(=O)N[C@@H](CCCCN)C(=O)O)o1 [SEQ ID NO: 18, Leu-Met-Saa1-Tyr-Leu-Lys] (H-LM[2Furoyl(5-aminomethyl)]YLK-OH)")
38.3

###

Entries and their Percent Cytotoxicity
tested on: MiaPaCa.2 (human pancreas); assay: MTT cytotoxicity assay, MiaPaCa.2 cells; assay type: cell-based; conditions: human, 48 hours, 1 μM
Starred links: 1 amine or outer side, 2 acyl side, 3 side chain; linkers in the order of their positions; H or OH if unused. Non-standard residues stand in square brackets, D forms with d. Residues, ends and D or L forms follow the SMILES beside them. 2Furoyl(5-aminomethyl) = O=C(c1ccc(CN[*:1])o1)[*:2]; X1 = O=C(C1CCC(CN[*:1])O1)[*:2]
measuredEndpoint: Percent Cytotoxicity (%)

>>> number("CSCC[C@H](NC(=O)[C@@H](N)CC(C)C)C(=O)NCc1ccc(C(=O)N[C@@H](Cc2ccc(O)cc2)C(=O)N[C@@H](CC(C)C)C(=O)N[C@@H](CCCCN)C(=O)O)o1 [SEQ ID NO: 18, Leu-Met-Saa1-Tyr-Leu-Lys] (H-LM[2Furoyl(5-aminomethyl)]YLK-OH)")
15.0
>>> number("CSCC[C@H](NC(=O)[C@@H](N)CC(C)C)C(=O)N[C@@H](Cc1ccc(O)cc1)C(=O)NC[C@H]1O[C@H](C(=O)N[C@H](C(=O)N[C@@H](Cc2ccc(O)cc2)C(=O)N[C@@H](CC(C)C)C(=O)N[C@@H](CCCCN)C(=O)O)[C@@H](C)O)[C@@H](OCc2ccccc2)[C@@H]1OCc1ccccc1 [SEQ ID NO: 3, Leu-Met-Tyr-Saa2-Thr-Tyr-Leu-Lys]")
13.9
>>> number("CSCC[C@H](NC(=O)[C@@H](N)CC(C)C)C(=O)N[C@@H](Cc1ccc(O)cc1)C(=O)NCC1CCC(C(=O)N[C@@H](Cc2ccc(O)cc2)C(=O)N[C@@H](CC(C)C)C(=O)N[C@@H](CCCCN)C(=O)O)O1 (stereo partly drawn) [SEQ ID NO: 12, Leu-Met-Tyr-Saa3-Tyr-Leu-Lys] (H-LMY[X1]YLK-OH)")
13.9
>>> number("CSCC[C@H](N)C(=O)NC[C@H]1CC[C@@H](C(=O)N[C@@H](Cc2ccc(O)cc2)C(=O)N[C@@H](CC(C)C)C(=O)O)O1 [SEQ ID NO: 17, Met-Saa4-Tyr-Leu]")
16.0

###

system: KB (oral); assay: MTT cytotoxicity assay, KB cells; type: cell-based, human; details: human, 48 hours, 1 μM
Starred links: 1 amine or outer side, 2 acyl side, 3 side chain; linkers in the order of their positions; H or OH if unused. Non-standard residues stand in square brackets, D forms with d. Residues, ends and D or L forms follow the SMILES beside them. 2Furoyl(5-aminomethyl) = O=C(c1ccc(CN[*:1])o1)[*:2]; X2 = O=C([C@@H]1CC[C@H](CN[*:1])O1)[*:2]
Please assign n whenever Percent Cytotoxicity is at or above 20%, and y whenever it is below.

>>> assignedlabel("CSCC[C@H](NC(=O)[C@@H](N)CC(C)C)C(=O)N[C@@H](Cc1ccc(O)cc1)C(=O)NC[C@H]1CC[C@@H](C(=O)N[C@@H](Cc2ccc(O)cc2)C(=O)N[C@@H](CC(C)C)C(=O)N[C@@H](CCCCN)C(=O)O)O1 [SEQ ID NO: 13, Leu-Met-Tyr-Saa4-Tyr-Leu-Lys] (H-LMY[X2]YLK-OH)")
"n"
>>> assignedlabel("CSCC[C@H](NC(=O)[C@@H](N)CC(C)C)C(=O)N[C@@H](Cc1ccc(O)cc1)C(=O)NCc1ccc(C(=O)N[C@@H](Cc2ccc(O)cc2)C(=O)N[C@@H](CC(C)C)C(=O)N[C@@H](CCCCN)C(=O)O)o1 [SEQ ID NO: 10, Leu-Met-Tyr-Saa1-Tyr-Leu-Lys] (H-LMY[2Furoyl(5-aminomethyl)]YLK-OH)")
"n"
>>> assignedlabel("CSCC[C@H](NC(=O)[C@@H](N)CC(C)C)C(=O)NCc1ccc(C(=O)N[C@@H](Cc2ccc(O)cc2)C(=O)N[C@@H](CC(C)C)C(=O)N[C@@H](CCCCN)C(=O)O)o1 [SEQ ID NO: 18, Leu-Met-Saa1-Tyr-Leu-Lys] (H-LM[2Furoyl(5-aminomethyl)]YLK-OH)")
"y"
>>> assignedlabel("CSCC[C@H](NC(=O)[C@@H](N)CC(C)C)C(=O)N[C@@H](Cc1ccc(O)cc1)C(=O)NC[C@H]1O[C@H](C(=O)N[C@H](C(=O)N[C@@H](Cc2ccc(O)cc2)C(=O)N[C@@H](CC(C)C)C(=O)N[C@@H](CCCCN)C(=O)O)[C@@H](C)O)[C@@H](OCc2ccccc2)[C@@H]1OCc1ccccc1")
"y"
